Biological target: Beta-2 adrenergic receptor (Homo sapiens)
Sequence (P07550 whole entry): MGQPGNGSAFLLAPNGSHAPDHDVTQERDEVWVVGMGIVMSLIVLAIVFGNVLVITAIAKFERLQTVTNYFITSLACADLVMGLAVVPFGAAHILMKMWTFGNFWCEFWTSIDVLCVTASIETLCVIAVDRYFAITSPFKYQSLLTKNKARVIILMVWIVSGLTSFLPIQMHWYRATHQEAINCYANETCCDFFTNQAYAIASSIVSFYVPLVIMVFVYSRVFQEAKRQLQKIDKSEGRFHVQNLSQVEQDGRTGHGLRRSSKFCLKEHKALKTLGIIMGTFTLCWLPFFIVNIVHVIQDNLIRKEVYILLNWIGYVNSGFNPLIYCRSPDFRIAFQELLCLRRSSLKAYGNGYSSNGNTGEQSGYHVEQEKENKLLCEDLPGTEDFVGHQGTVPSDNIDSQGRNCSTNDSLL
Assay: Ability to cause cAMP accumulation in CHO cells expressing human beta-2 AR expressed as the negative logarithm of the molar drug concentration
Type: functional, cell-based
value kind: EC50 (nM)

Would you please look over these solved cases?
{"input smiles": "Cc1ccc(S(=O)(=O)NC(=O)Cc2ccc(NC[C@@H](C)NC[C@H](O)c3cccc(Cl)c3)cc2)cc1", "measurement units": "nM", "EC50": 79.4}
{"input smiles": "C[C@H](CNc1cccc(CC(=O)O)c1)NC[C@H](O)c1cccc(Cl)c1", "measurement units": "nM", "EC50": 50.1}

I. C[C@H](CNc1ccc(CC(=O)NS(=O)(=O)c2ccccc2)cc1)NC[C@H](O)c1cccc(Cl)c1
II. Cc1ccc(S(=O)(=O)NCCc2ccc(NC[C@@H](C)NC[C@H](O)c3cccc(Cl)c3)cc2)cc1
Ask | Pick one, I or II : lowest reported EC50. API: response body contains the label of the selected item.
Reply | II
(II: 10 nM, I: 31.6 nM)
